Target: SHP2-C SH2;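 note: peptide library displayed on the E. coli surface as eCPX fusions, selected cells deep-sequenced, score is each peptide's frequency after selection divided by its frequency in the input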
Test: SH2 binding enrichment of the phosphorylated peptide, bacterial display (enrichment ratio); higher = better substrate or ligand; peptides without Tyr show the background
readout_name: SH2 binding enrichment
Number only, please.

In: Specify reported SH2 binding enrichment for the sequence shown: THQNSYQPGRK [CEFIP_Y210]
Out: 0.98

In: Specify reported SH2 binding enrichment for the sequence shown: PSQRHYVFFFS [PTEN_Y174_R173H_YF]
Out: 1.16

In: Specify reported SH2 binding enrichment for the sequence shown: WLQKLYNNFVN [MYO5C_Y526]
Out: 1.18

In: Specify reported SH2 binding enrichment for the sequence shown: MDYRSYPREYG [RBM10_Y44]
Out: 0.591

In: Specify reported SH2 binding enrichment for the sequence shown: TPGPNYRPGYN [USH2A_Y463]
Out: 0.488

In: Specify reported SH2 binding enrichment for the sequence shown: NACGLYFKLHN [GATA2_Y376_YF]
Out: 0.686

In: Specify reported SH2 binding enrichment for the sequence shown: MPLDQYSPSFP [FGFR1_Y776]
Out: 0.803

In: Specify reported SH2 binding enrichment for the sequence shown: IIQRAYRGHLL [SCN1A_Y1926_R1928G]
Out: 0.559

In: Specify reported SH2 binding enrichment for the sequence shown: RFLRGYRQDAY [HLA-A_Y137]
Out: 0.556

In: Specify reported SH2 binding enrichment for the sequence shown: NHYKIYNPCAE [PTEN_Y68_L70P]
Out: 0.761

In: Specify reported SH2 binding enrichment for the sequence shown: LKETGYVVERP [BCLAF1_Y466]
Out: 0.68

In: Specify reported SH2 binding enrichment for the sequence shown: TVLWWYTGTRP [UGT1A1_Y337_R336W]
Out: 2.08

In: Specify reported SH2 binding enrichment for the sequence shown: LVMFIYVIFGM [SCN1A_Y1684_A1685V]
Out: 1.49

In: Specify reported SH2 binding enrichment for the sequence shown: RPDSPYSRLHD [DOK2_Y271_P274L]
Out: 1.1

In: Specify reported SH2 binding enrichment for the sequence shown: PTTKTYFPHFF [HBA1_Y43_D48Y_YF]
Out: 1.01

In: Specify reported SH2 binding enrichment for the sequence shown: LRRREYQRQDF [PRKRIP1_Y90_YF]
Out: 0.55

In: Specify reported SH2 binding enrichment for the sequence shown: YGGRDYSLDEF [MYOF_Y1705]
Out: 0.472

In: Specify reported SH2 binding enrichment for the sequence shown: LLQEWYMIISR [HUWE1_Y4066_R4063Q]
Out: 1.09

In: Specify reported SH2 binding enrichment for the sequence shown: YCIDHYLGKEM [G6PD_Y202_R198C]
Out: 1.05

In: Specify reported SH2 binding enrichment for the sequence shown: VVLVSYVPFSQ [SH2B1_Y624_S627F]
Out: 1.03

In: Specify reported SH2 binding enrichment for the sequence shown: RSDEDYLYREE [POR_Y573]
Out: 0.748

In: Specify reported SH2 binding enrichment for the sequence shown: PSQRRYVFFFS [PTEN_Y174_YF]
Out: 1.64

In: Specify reported SH2 binding enrichment for the sequence shown: VPLLEYFWDIF [CDAN1_Y712_R714W_YF]
Out: 2.12

In: Specify reported SH2 binding enrichment for the sequence shown: HQIQSYTCEID [DES_Y331]
Out: 0.786

In: Specify reported SH2 binding enrichment for the sequence shown: RRIHSYRGRLW [VHL_Y112_H115R]
Out: 0.561

In: Specify reported SH2 binding enrichment for the sequence shown: KQFWRYFPGNL [SLC25A4_Y112_A114P]
Out: 0.863

In: Specify reported SH2 binding enrichment for the sequence shown: LVLIKYLPEWT [PSEN1_Y240_F237L]
Out: 1.99

In: Specify reported SH2 binding enrichment for the sequence shown: FFDANYDGKEF [MAPRE2_Y162_YF]
Out: 0.759

In: Specify reported SH2 binding enrichment for the sequence shown: VPANRYDLLRL [FARSB_Y72_C76R]
Out: 0.648

In: Specify reported SH2 binding enrichment for the sequence shown: LFMGDYVGRGY [PPP2CA_Y86_D88G]
Out: 0.596

In: Specify reported SH2 binding enrichment for the sequence shown: PADQAYSWYQH [NDST1_Y711_R709Q]
Out: 0.488

In: Specify reported SH2 binding enrichment for the sequence shown: HDRREYSRFEK [ITGB7_Y758_Y753H]
Out: 0.873

In: Specify reported SH2 binding enrichment for the sequence shown: PVGVLYKVKVY [PTS_Y128]
Out: 0.584

In: Specify reported SH2 binding enrichment for the sequence shown: SGIYQYNIAKF [FOXL2_Y83_I84N]
Out: 0.875

In: Specify reported SH2 binding enrichment for the sequence shown: NFRRGYHLQVL [CD200R1L_Y138_H135R]
Out: 0.713

In: Specify reported SH2 binding enrichment for the sequence shown: SLMNQYVNKEF [RAB7A_Y28_K32E]
Out: 0.949

In: Specify reported SH2 binding enrichment for the sequence shown: HLDRSYSYSYS [PEAR1_Y890_R885H]
Out: 1.2

In: Specify reported SH2 binding enrichment for the sequence shown: KDFETYQSFQN [CTNND2_Y1157_P1159S_YF]
Out: 0.816

In: Specify reported SH2 binding enrichment for the sequence shown: TQFWLYFAGNL [SLC25A5_Y112]
Out: 0.557

In: Specify reported SH2 binding enrichment for the sequence shown: DGTESYHTVSS [PLK1_Y462_L463H]
Out: 0.755

In: Specify reported SH2 binding enrichment for the sequence shown: QDLLLYQTHSE [PKHD1_Y255_F253L]
Out: 0.681

In: Specify reported SH2 binding enrichment for the sequence shown: SGPRHYTIAAL [TTR_Y125_R124H]
Out: 1.19

In: Specify reported SH2 binding enrichment for the sequence shown: PSQRHYVYYYS [PTEN_Y174_R173H]
Out: 3.14

In: Specify reported SH2 binding enrichment for the sequence shown: DDFDLYGGEKF [PTPN11_Y66_Y62D_YF]
Out: 0.545

In: Specify reported SH2 binding enrichment for the sequence shown: SFPPTYRYERG [INPPL1_Y661]
Out: 0.605

In: Specify reported SH2 binding enrichment for the sequence shown: SETSRYLSDLF [KCNJ3_Y67]
Out: 0.989

In: Specify reported SH2 binding enrichment for the sequence shown: ERDFTYDELLN [EIF2S2_Y176_E177D_YF]
Out: 0.789

In: Specify reported SH2 binding enrichment for the sequence shown: QNTGDDFDLFG [PTPN11_Y62_Y62D_YF]
Out: 0.442

In: Specify reported SH2 binding enrichment for the sequence shown: CEQELYSQLVF [WAS_Y102_W97C_YF]
Out: 0.553

In: Specify reported SH2 binding enrichment for the sequence shown: QQLQGYVPSNF [FRK_Y99_I100V_YF]
Out: 0.64

In: Specify reported SH2 binding enrichment for the sequence shown: KVMANYVYKAG [MAML2_Y513_M514V]
Out: 1.28

In: Specify reported SH2 binding enrichment for the sequence shown: SFSGEYGGGGG [ZG16_Y30_YF]
Out: 0.543

In: Specify reported SH2 binding enrichment for the sequence shown: IGSHAYGDQYR [IDH1_Y135_R132S]
Out: 0.521

In: Specify reported SH2 binding enrichment for the sequence shown: LTFDEYRNISQ [ANXA3_Y216]
Out: 0.585

In: Specify reported SH2 binding enrichment for the sequence shown: ARGTRYRYVSQ [UCN3_Y95]
Out: 0.602

In: Specify reported SH2 binding enrichment for the sequence shown: LAGRYYALRSM [CKB_Y174_K177R]
Out: 2.86

In: Specify reported SH2 binding enrichment for the sequence shown: HEGKIYEFNQV [ZNF665_Y162_YF]
Out: 0.633

---

Molecular target: EPHB2 (UniProt P29323)
Sequence (P29323 whole entry, looked up): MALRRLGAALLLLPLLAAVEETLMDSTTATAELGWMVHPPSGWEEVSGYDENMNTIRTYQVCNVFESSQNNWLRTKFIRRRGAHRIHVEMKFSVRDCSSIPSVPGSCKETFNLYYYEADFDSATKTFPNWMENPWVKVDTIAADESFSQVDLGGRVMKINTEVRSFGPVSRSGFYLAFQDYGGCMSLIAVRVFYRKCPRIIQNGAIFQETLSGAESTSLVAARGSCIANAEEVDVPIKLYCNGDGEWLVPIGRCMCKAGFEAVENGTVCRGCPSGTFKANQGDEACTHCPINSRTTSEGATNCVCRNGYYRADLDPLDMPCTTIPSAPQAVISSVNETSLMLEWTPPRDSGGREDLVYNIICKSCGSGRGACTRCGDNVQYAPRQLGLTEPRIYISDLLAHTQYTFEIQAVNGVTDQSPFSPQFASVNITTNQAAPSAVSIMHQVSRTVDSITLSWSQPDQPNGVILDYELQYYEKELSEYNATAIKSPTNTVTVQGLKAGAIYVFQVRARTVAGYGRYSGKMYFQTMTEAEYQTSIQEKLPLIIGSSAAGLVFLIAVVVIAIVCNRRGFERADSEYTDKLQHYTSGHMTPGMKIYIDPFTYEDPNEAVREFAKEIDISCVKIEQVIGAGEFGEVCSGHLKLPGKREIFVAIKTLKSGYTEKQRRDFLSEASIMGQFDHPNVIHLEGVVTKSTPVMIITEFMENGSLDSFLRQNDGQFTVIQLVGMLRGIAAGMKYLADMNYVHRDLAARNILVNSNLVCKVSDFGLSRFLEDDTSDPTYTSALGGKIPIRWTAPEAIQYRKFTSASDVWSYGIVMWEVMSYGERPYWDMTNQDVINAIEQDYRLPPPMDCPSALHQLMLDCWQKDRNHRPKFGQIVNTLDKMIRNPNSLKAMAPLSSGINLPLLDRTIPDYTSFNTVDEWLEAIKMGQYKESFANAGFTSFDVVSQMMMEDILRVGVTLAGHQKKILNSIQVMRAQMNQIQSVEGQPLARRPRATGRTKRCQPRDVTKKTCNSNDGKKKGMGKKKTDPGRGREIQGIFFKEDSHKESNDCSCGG
Assay: phosphorylation enrichment, bacterial display (enrichment ratio); higher = better substrate or ligand; peptides without Tyr show the background
readout_name: phosphorylation enrichment
Number only, please.

In: Specify reported phosphorylation enrichment for the sequence shown: PSQRPYVYYYS [PTEN_Y174_R173P]
Out: 0.676

In: Specify reported phosphorylation enrichment for the sequence shown: DRQASYLDKVR [KRT16_Y131_L128Q]
Out: 0.419

In: Specify reported phosphorylation enrichment for the sequence shown: QYKDKYLAKHN [CASK_Y712]
Out: 0.402

In: Specify reported phosphorylation enrichment for the sequence shown: MAFDRYVAVCA [OR52J3_Y125]
Out: 0.7

In: Specify reported phosphorylation enrichment for the sequence shown: FLNSIYKCRDE [ROS1_Y2227_S2229C]
Out: 0.514

In: Specify reported phosphorylation enrichment for the sequence shown: DEGVNYFMSKG [FBXO8_Y156]
Out: 0.685

In: Specify reported phosphorylation enrichment for the sequence shown: LFLACYCIGGG [UBD_Y161]
Out: 1.12
